Origin of measurements: ChEMBL document CHEMBL1201862

tested on: SN12C; experiment: NCI tumour cell line growth inhibition, 48 h
Calls of active or inactive are those of the source. No stated cut-off is given here; in the data, active = GI50 up to about 1.1 µM and inactive = higher.
parameter.measured: GI50

• Nc1ccc2ccc(-c3ccc[nH]3)nc2n1 = > 100 µM (inactive)
• O=C1C2CCCCC2C(=O)N1n1c(Cc2ccc(Cl)cc2)n[nH]c1=O (stereo not given) = > 100 µM (inactive)
• c1cncc(C2c3[nH]c4ccccc4c3CCN2CCN2CCCCC2)c1 (stereo not given) = > 100 µM (inactive)
• C=CCCCN1CCCCC1=S = > 100 µM (inactive)
• COc1cc(O)c2c(c1)C(O)C(O)CC1OC1C(=O)/C=C/CC(C)OC2=O (stereo not given) = 3.72 µM (inactive)

* * *

system: A549; assay: NCI tumour cell line growth inhibition, 48 h
Activity calls are given as the source filed them. Cut-off read from the data, not from the text of the source: active = GI50 up to about 1.1 µM and inactive = higher.
Here the recorded GI50 is given for each entry.
parameter.measured: GI50

* N=C1NC2(O)C(=O)c3ccccc3C2(O)N1 (stereo not drawn) | > 100 µM (inactive)
* CNC(=O)OCC1=C(COC(=O)NC)CN(c2ccccc2)C1 | > 100 µM (inactive)
* O=C1c2ccccc2C(=O)N1/N=C1/SC(=N\c2ccccc2)/C(=N/c2ccccc2)N1c1ccccc1 | > 21 µM (inactive)

* * *

test system: SF-268; assay: NCI tumour cell line growth inhibition, 48 h
Calls of active or inactive are those of the source. Cut-off read from the data, not from the text of the source: active = GI50 up to about 1.1 µM and inactive = higher.
Classes used: active, inactive

• CCOC(C)C(/C=N/NC(N)=S)=NNC(N)=S (stereo not given) = inactive
• C/C(=N\NS(=O)(=O)c1ccc(C)cc1)c1cc2ccccc2n1C = inactive
• CSc1c(CC(=O)Nc2ccc(Cl)cc2)n(Cc2ccccc2)c2ccccc12 = inactive
• CC(=O)Nc1ccc2c3c(cc(O)c2c1)N(C(=O)CCCCC(=O)Nc1ccc2c4c(cc(O)c2c1)N(C(=O)OC(C)(C)C)CC4CCl)CC3CCl (stereo not given) = active
• CCOC(=O)c1nc2cc(C(F)(F)F)ccc2nc1Nc1ccc(OC)cc1 = inactive

* * *

Below: a set of entries, each annotated with reported GI50.
system: TK-10; test: NCI tumour cell line growth inhibition, 48 h
Calls of active or inactive are those of the source. Rule as the data show it: active = GI50 up to about 1.1 µM and inactive = higher.
parameter.measured: GI50

* CCOC(=O)C(NC(=O)Nc1ccc(Cl)c(Cl)c1)C(F)(F)F (centres undefined) | > 100 µM (inactive)
* COc1ccc(C2=NN(c3ccccc3)C[N+](c3ccc(C)cc3)=N2)cc1 | > 100 µM (inactive)
* COc1cc2c([C@@H](OC(=O)c3ccccc3)c3ccc4c(c3)OCO4)nccc2c(OC)c1OC | 75.9 µM (inactive)
* Cc1cccc(C(C)C)c1NC(=O)/C(Cc1c([N+](=O)[O-])cccc1[N+](=O)[O-])=N/NC(=O)CC#N | 80.9 µM (inactive)
* CC12C=CC(=O)C=C1CCC1C3CCC(O)(C(=O)CO)C3(C)CC(O)C12F (centres undefined) | > 100 µM (inactive)
* Clc1ccc(Cc2nc3ccccc3o2)cc1 | > 100 µM (inactive)
* N#Cc1c(C#N)c(-c2ccccc2)n(-c2ccccc2)c1N | > 100 µM (inactive)
* OCCNc1ncnc2c1ncn2C1OC(CO)C(O)C1O (centres undefined) | 71.3 µM (inactive)
* CCOC1=C2N=C(C(CC)c3ccccc3F)N=C2C(=O)c2ccccc21 (centres undefined) | 3.27 µM (inactive)
* COC(=O)c1ccc(CN2CCc3c([nH]c4ccccc34)C2CO)o1 (centres undefined) | > 10 µM (inactive)
* COc1nc2c(c(O)c(C)c(=O)n2OC2OC(COC(C)=O)C(OC(C)=O)C(OC(C)=O)C2OC(C)=O)c(=O)n1C (centres undefined) | > 100 µM (inactive)
* O=C(O)C(O)c1ccc(F)cc1 (centres undefined) | > 100 µM (inactive)
* COC(Cc1ccccc1)NC(C)=O (centres undefined) | > 100 µM (inactive)
* COc1cc(/C=C2\C(=O)N(c3cccc(NC(C)=O)c3)C(c3ccccc3)S2(=O)=O)cc(OC)c1OC (centres undefined) | > 100 µM (inactive)

* * *

system: SF-295; assay: NCI tumour cell line growth inhibition, 48 h
Activity calls are given as the source filed them. No stated cut-off is given here; in the data, active = GI50 up to about 1.1 µM and inactive = higher.
Outcomes: 1 (yes) (active), 0 (no) (inactive)

• C[C@H](O)C(=O)SC[C@H](NC(=O)CC[C@@H](N)C(=O)O)C(=O)NCC(=O)O = 0 (no)
• COc1ccc(/C=C2\CCC(C)(CN(C)C)C2=O)cc1 (centres undefined) = 0 (no)
• COc1cc2c(cc1OCCCCCN1C(=O)c3cccc4cccc(c34)C1=O)N=C[C@@H]1CCCN1C2=O = 1 (yes)
• C=CCCCN1CCCCC1=S = 0 (no)

* * *

system: PC-3; assay: NCI tumour cell line growth inhibition, 48 h
Active and inactive are the calls of the source. Rule as the data show it: active = GI50 up to about 1.1 µM and inactive = higher.
parameter.measured: GI50

* COc1ccc(/N=C(\C)c2ccncc2)cc1 | > 100 µM (inactive)
* Cc1ccc(NC(=O)C(Cc2c[nH]c3ccccc23)NC(=O)Oc2ccccc2)cc1C (stereo unspecified) | 37.3 µM (inactive)
* CC12CC(Br)(Br)C(=O)C3C1CCCC32 | 12.2 µM (inactive)
* C/C=C\C(CC(=O)NCCC1CN(S(=O)(=O)c2ccc(C)cc2)c2ccccc21)CC(=O)OC (stereo unspecified) | > 100 µM (inactive)
* O=c1[nH]nc(Cc2ccc(Cl)cc2)n1/N=C/c1ccc([N+](=O)[O-])o1 | 3.08 µM (inactive)
* O=C1c2ccccc2C(=O)N1n1c(Cc2ccc(Cl)cc2)n[nH]c1=O | > 100 µM (inactive)

* * *

tested on: SR; experiment: NCI tumour cell line growth inhibition, 48 h
Active and inactive are the calls of the source. Rule as the data show it: active = GI50 up to about 1.1 µM and inactive = higher. Where a SMILES comes first, the peptide text is derived from it. Peptide text beside a SMILES is read from it. * marks the point of attachment. Boc = CC(C)(C)OC(=O)*
Possible outcomes: true (1) for active, false (0) for inactive

• CC12CCC([C@H](N3CCOCC3)/C1=N\OCCN1CCCC1)C2(C)C (some centres undefined) = false (0)
• N#C/C(=C1/Sc2c(nc[nH]c2=O)N1c1ccccc1)c1nc2ccccc2[nH]1 = false (0)
• O=c1c2nc[nH]c2n(-c2ccccc2)c(=S)n1-c1ccccc1 = false (0)
• CCOC(=O)C1=C(C(=O)OCC)SC2(S1)C(C(=O)OCC)=C(C(=O)OCC)Sc1c2ssc1=O = true (1)
• O=C1Cc2cn[nH]c2-c2ccccc2N1 = false (0)
• CCCCCCCSc1nc2c(C(=O)OCC)ncn2c2ccccc12 = false (0)
• CC(=O)n1cc(C2CC23N=C(c2ccccc2)OC3=O)c2ccccc21 (centres undefined) = false (0)
• COc1ccc(NC(=O)CC(=O)N2N=C(N(CCC#N)c3ccccc3Cl)CC2c2ccccc2)cc1 (centres undefined) = false (0)
• CCC(C)C1NC(=O)C2CCCN2C(=O)CNC(=O)C(C)NC(=O)C(Cc2ccccc2)NC(=O)C(C(C)C)NC1=O (centres undefined) (cyclo(GPIVFA); configuration not given here) = false (0)
• Cc1c(O)c(=O)ccn1CCc1c[nH]c2ccccc12 = false (0)
• CC1=CC(=O)C2=C(C)CCC3C(C)C(=O)OC3C12 (centres undefined) = false (0)
• O=C1c2cccc3cc4ccccc4c(c23)C(=O)N1CCCNCCNCCCN1C(=O)c2cccc3cc4ccccc4c(c23)C1=O = true (1)
• O=C1c2cc3c(cc2CC12Cc1ccc4c(c1C2=O)CCCC4)CCCC3 (centres undefined) = false (0)
• CC(=O)Nc1ccc(NC(=O)CC(=O)Nc2ccc(NC(C)=O)cc2)cc1 = false (0)
• COC(=O)C1Cc2c(C)cccc2C1=O (centres undefined) = false (0)
• CNC(=O)Oc1ccc(C(=S)Nc2ccc(Br)cc2)cc1 = false (0)
• O=C1NC(=S)NC(=O)C1=Cc1cccc2cc3ccccc3cc12 = false (0)
• COc1cccc(CCNc2c(C#N)c3n(c4ccccc4[n+]3C)c3ncccc23)c1 = false (0)
• CC(NC(=O)OC(C)(C)C)C(=O)NC(Cc1ccccc1)C(=O)NCC(=O)O (stereo not drawn) (Boc-Ala-Phe-Gly-OH; configuration not given here) = false (0)

* * *

tested on: 786-0; test: NCI tumour cell line growth inhibition, 48 h
Calls of active or inactive are those of the source. Cut-off read from the data, not from the text of the source: active = GI50 up to about 1.1 µM and inactive = higher.
Classes used: yes = active, no = inactive

- CC1=Nc2ccccc2S(=O)(=O)N1: no
- O=C1c2ccccc2C(=O)N1/N=C1/SC(=N\c2ccccc2)/C(=N/c2ccccc2)N1c1ccccc1: no
- CN1NC2(CCCCC2)ON=C1c1ccccc1: no
- CC(C)=CCC[C@@H](C)[C@H]1CC[C@@]2(C)[C@@H]3CC[C@H]4C(C)(C)[C@@H](O)CC[C@@]45C[C@@]35CC[C@]12C: no
- Cc1nc2c(sc3nc4ccccc4n32)c(=O)[nH]1: no
- CC(=O)NC1=C(N)C(=O)c2ccccc2C1=O: no
- COC(=O)C1Cc2c(C)cccc2C1=O (configuration not stated): no
- CCN(CCCl)c1cc(CN(C)C)cc(NC(=O)c2ccc(C(=O)Nc3cccc(N(CCCl)NN)c3)cc2)c1: yes
- CCOC(=O)c1[nH]c(Br)c(-c2ccc(OC)c(OC)c2)c1Br: yes
- ClC(Cl)=C(Cl)C1(Cl)CC1COCc1ccccc1 (configuration not stated): no
- CCOC(=O)/C(=C/c1cccc(C#N)c1)N(CC)CC: no
- COc1ccc(NC(=O)CC(=O)N2N=C(N(CCC#N)c3ccccc3Cl)CC2c2ccccc2)cc1 (configuration not stated): no
- O=C1CCCc2cc3c(cc21)CC1(C3)Cc2ccc3c(c2C1)C(=O)CCC3 (configuration not stated): no
- CC(=O)n1cc(C2CC23N=C(c2ccccc2)OC3=O)c2ccccc21 (configuration not stated): no
- O=C(NC1C=CCC2C(=O)N(c3ccccc3)C(=O)C12)OCc1ccccc1 (configuration not stated): no
- COc1ccc(COCC[C@H](C)OC2OC(CO[Si](C)(C)C(C)(C)C)C(OC(=O)CCCN=[N+]=[N-])C(OC(=O)CCCN=[N+]=[N-])C2OC(=O)CCCN=[N+]=[N-])cc1 (some centres not stated): no
- O=c1[nH][nH]c(=O)[nH]1: no
- CCOC(C/N=c1/nc(N(C)C)ss1)OCC: no
- C/C=C1/CN2CCC34c5ccccc5N(C)C23C2CC1C4(C(=O)OC)C(OC(C)=O)O2 (configuration not stated): no
- COC(=O)c1nc(-c2ccc(Cl)c(Cl)c2)nc2ccccc12: no
- NCC(NC(=O)OCc1ccccc1)C(=O)O (configuration not stated): no
- CC[C@]12C=CCN3CC[C@@]4(c5cc(Br)c(OC)c([N+](=O)[O-])c5N(C)[C@H]4[C@@](O)(C(=O)OC)[C@@H]1OC(C)=O)[C@@H]32: no
- N#Cc1c(C#N)c(-c2ccccc2)n(-c2ccccc2)c1N: no
- Cc1c(O)c(=O)ccn1CCc1c[nH]c2ccccc12: no
- CN(C)CCC(O)(c1ccccc1)C(O)(CCN(C)C)c1ccccc1 (configuration not stated): no
- Cc1cc(S(=O)(=O)Nc2n[nH]c(Nc3ccccc3)n2)c(S)cc1Cl: no
- O=C1c2ccccc2C(=O)C2C3c4ccccc4C(c4ccccc43)C12 (configuration not stated): no
- Cc1ccc(C2(c3ccc(C)c(O)c3C)CCN(C)CC2)c(C)c1O: no
- COc1ccc(C2=NN(c3ccccc3)C[N+](c3ccc(C)cc3)=N2)cc1: no
- Cc1ccc(Nc2[nH]c(=O)[nH]c(=O)c2C)cc1Cl: no
- O=C(c1nc2ccc(Cl)cc2[nH]c1=O)C(O)c1cccc([N+](=O)[O-])c1 (configuration not stated): no
- C=CC/N=C1\NC(=O)C(CC(=O)Nc2ccc(C)cc2)S1 (configuration not stated): no
